- assay_system: human phosphoinositide-3 kinase (PI3K) delta (Homo sapiens (Human), UniProt O00329)
- Sequence (O00329 whole entry): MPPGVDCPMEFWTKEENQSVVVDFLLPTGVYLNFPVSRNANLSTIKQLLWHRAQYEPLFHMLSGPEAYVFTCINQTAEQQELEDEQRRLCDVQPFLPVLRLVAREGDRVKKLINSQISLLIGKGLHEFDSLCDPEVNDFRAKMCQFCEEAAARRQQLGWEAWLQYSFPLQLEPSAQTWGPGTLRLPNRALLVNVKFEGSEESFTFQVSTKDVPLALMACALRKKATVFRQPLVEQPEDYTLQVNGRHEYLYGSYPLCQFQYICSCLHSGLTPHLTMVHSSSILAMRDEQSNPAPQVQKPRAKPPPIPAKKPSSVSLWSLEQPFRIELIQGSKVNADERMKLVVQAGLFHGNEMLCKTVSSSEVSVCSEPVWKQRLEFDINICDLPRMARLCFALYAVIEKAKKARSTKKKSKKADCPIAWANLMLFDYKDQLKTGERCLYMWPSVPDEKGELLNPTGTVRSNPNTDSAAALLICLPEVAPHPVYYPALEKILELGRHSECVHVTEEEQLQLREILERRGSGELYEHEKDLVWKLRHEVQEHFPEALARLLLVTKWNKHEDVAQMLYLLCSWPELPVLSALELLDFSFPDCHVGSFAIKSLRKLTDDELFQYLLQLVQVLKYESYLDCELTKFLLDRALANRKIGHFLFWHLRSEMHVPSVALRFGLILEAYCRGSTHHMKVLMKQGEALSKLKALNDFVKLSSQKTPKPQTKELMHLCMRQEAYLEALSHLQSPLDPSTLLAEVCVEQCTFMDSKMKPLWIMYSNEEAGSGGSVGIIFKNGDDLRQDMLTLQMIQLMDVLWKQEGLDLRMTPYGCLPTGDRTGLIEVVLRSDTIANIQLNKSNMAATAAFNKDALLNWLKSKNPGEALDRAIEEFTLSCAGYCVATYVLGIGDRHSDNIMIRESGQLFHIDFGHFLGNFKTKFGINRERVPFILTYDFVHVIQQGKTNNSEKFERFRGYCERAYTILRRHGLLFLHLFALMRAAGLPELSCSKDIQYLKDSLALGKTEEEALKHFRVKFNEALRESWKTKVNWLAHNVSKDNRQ
- Sequence (Q63787 whole entry partner): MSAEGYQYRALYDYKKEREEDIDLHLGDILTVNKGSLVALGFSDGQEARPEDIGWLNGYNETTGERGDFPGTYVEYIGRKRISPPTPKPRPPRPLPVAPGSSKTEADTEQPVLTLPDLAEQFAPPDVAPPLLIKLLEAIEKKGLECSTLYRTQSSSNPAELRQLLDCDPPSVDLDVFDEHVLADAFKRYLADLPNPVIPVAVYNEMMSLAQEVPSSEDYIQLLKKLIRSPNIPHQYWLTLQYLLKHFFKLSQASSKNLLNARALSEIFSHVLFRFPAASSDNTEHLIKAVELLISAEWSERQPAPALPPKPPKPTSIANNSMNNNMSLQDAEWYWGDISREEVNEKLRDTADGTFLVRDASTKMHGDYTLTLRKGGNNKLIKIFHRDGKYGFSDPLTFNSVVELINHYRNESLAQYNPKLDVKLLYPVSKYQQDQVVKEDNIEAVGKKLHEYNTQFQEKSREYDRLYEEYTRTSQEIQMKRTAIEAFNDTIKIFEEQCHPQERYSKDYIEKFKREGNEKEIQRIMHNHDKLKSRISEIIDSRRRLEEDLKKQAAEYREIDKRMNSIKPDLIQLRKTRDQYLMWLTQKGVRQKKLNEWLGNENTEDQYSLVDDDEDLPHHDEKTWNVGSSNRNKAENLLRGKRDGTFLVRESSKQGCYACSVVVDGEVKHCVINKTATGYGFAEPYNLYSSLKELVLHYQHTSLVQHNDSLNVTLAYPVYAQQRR
- test_protocol: PI3K-mediated Akt 1/2 (S473) phosphorylation in Rat-1 cells overexpressing PI3K delta
- test_context: cellular assay, p-AKT(Ser473), read-out: Cell PI3K delta IC50
value_kind: IC50 (nM)

compound	assay_system	unit_descriptor	IC50
Cc1nc(N)nc(N2C[C@@H](O)C[C@H]2c2nc3cccc(-c4cnn(C)c4)c3c(=O)n2-c2ccccc2)c1C#N [Example 16]	human phosphoinositide-3 kinase (PI3K) delta (Homo sapiens (Human), UniProt O00329)	nM	8
Cc1ccccc1-n1c([C@@H]2CCCN2c2ncnc(N)c2C#N)nc2cccc(-c3cnn(C)c3)c2c1=O [Example 14]	human phosphoinositide-3 kinase (PI3K) delta (Homo sapiens (Human), UniProt O00329)	nM	8

I = Cc1nc(N)nc(N2C[C@@H](O)C[C@H]2c2nc3cccc(-c4cnn(CCO)c4)c3c(=O)n2-c2ccccc2)c1C#N [Example 28]
II = Cn1cc(-c2c(F)ccc3nc([C@@H]4C[C@H](O)CN4c4ncnc(N)c4C#N)n(-c4ccccc4)c(=O)c23)cn1 [Example 8]
III = COc1cncc(-c2cccc3nc([C@@H]4C[C@H](O)CN4c4nc(N)nc(C)c4C#N)n(-c4ccccc4)c(=O)c23)c1 [Example 25]
Input line: # ascending order, key=IC50 List the labels, following the order given in the request.
Output line: III, II, I
